Cited source for all entries: patent EP0866075B1

Recorded inhibition IC50 for the following binders
EXPERIMENTAL_SYSTEM: enzyme I (phosphoenolpyruvate-protein phosphotransferase, EC 2.7.3.9) of the E. coli phosphotransferase system (E. coli, UniProt P08839 1-575)
PROTOCOL_DETAILS: cell-based or functional assay
No end group written: not given here.
EXPERIMENTAL_READOUT: inhibition IC50 (µM)

                                     binder  unit_spec  inequality_operator  measurement
0        KISRHGRPTG [peptide 19 KISRHGRPTG]         µM                    =         1060
1     Ac-DGARLHYLF [peptide 23 AcDGARLHYLF]         µM                    =         7600
2                RHITSL [peptide 27 RHITSL]         µM                    =          650
3                RLHYLF [peptide 21 RLHYLF]         µM                    =          375
4  Ac-MRLLKTLCFVGLCG (cysteine pairing not given here) [peptide 32 AcMRLLKTLCFVGLCG]         µM                    >        10000
5        KMSRHRKPGA [peptide 16 KMSRHRKPGA]         µM                    =          100
6                RHITLF [peptide 28 RHITLF]         µM                    =         1380
7                RHWSIF [peptide 24 RHWSIF]         µM                    =          400
8                MSRHRN [peptide 29 MSRHRN]         µM                    =          760
